Values were extracted from PubChem BioAssay AID1919003.

For each record, write down the corresponding viability, T/C.
# Tested on: 786-0 complex spheroids with HUVEC/MSC, growth % test/control
# METHOD: Anticancer human tumor 786-0 cell line growth inhibition [AhR];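 further: compound exposure lasted seven days before the read-out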
# MEASUREMENT_CONTEXT: second compound 1 µM; first compound 0.0316 µM; hits give low values
API: value field is a number in %; no unit string.

Query the reported viability, T/C for 786-0 complex spheroids with HUVEC/MSC, growth % test/control; item: Nc1ccccc1NC(=O)c1ccc(CNC(=O)OCc2cccnc2)cc1 + Cc1cncc(-c2nc(NCCc3c[nH]c4ccccc34)c3ncn(C(C)C)c3n2)c1 106

What would you report for CC1COCCN1c1cc(-c2ccnn2C)c2ccnc(-c3ccn[nH]3)c2n1 (stereo not drawn) + Cc1ccccc1N=Nc1ccc(NC(=O)c2ccnn2C)c(C)c1 ? 102

Next compound up: COc1cc(C2c3cc4c(cc3C(OC3OC5COC(C)OC5C(O)C3O)C3COC(=O)C23)OCO4)cc(OC)c1O (stereo not drawn) + Cc1ccccc1N=Nc1ccc(NC(=O)c2ccnn2C)c(C)c1 107
